Tested on: MALME-3M melanoma
Assay: NCI-60 one-dose screen, 48 h (100 = growth as untreated, 0 = no growth, -100 = all killed)
Conditions: 10 µM unless noted
The panel holds about 83,000 compounds, 20% with a hit somewhere; the sample as a whole holds those more often. Calls of active or inactive are those of the source. How the source made its calls: active means growth percent below 10; inactive means the rest.
assay_metric: growth

# count of solved cases: 2
compound	measurement_target	growth
C=C1c2c(C)nn(-c3ccc(NC(C)=O)cc3)c2N(C)C23CC1C1(C)c4c(C)nn(-c5ccc(NC(C)=O)cc5)c4N(C)C(C)(CC12)C3 (stereo not given)	MALME-3M melanoma	71.1% (inactive)
N#Cc1cnn2c(-c3ccc(Cl)cc3)nc(NC3CC3)nc12	MALME-3M melanoma	125% (inactive)

Please give measured growth of the following entry: Cc1cc(C)on1
112% (inactive)

Please give measured growth of the following entry: Cc1[nH]c(-c2nc3ccccc3[nH]2)c(C)c1C(=O)N1CCc2sccc2C1
85.9% (inactive)

Please give measured growth of the following entry: CN(CCC(=O)/C(=C\c1ccccc1)c1ccc(Cl)cc1)Cc1ccccc1
18% (inactive)

Please give measured growth of the following entry: CC(=O)C(C(C)=O)c1nc2sc3cc(Cl)ccc3n2c(=N)c1C#N
95.2% (inactive)

Please give measured growth of the following entry: CNC(=O)c1cc(Oc2ccc3nc(Nc4cc(Cl)cc(Cl)c4)ccc3c2)ccn1
64.7% (inactive)

Please give measured growth of the following entry: Cc1c(C(=O)O[C@H]2[C@@H]3[C@H](C)CC[C@H]3[C@]3(C)O[C@@]2(C2CCCCC2)C[C@H]3OC(=O)CO)ccc2ccccc12
42.3% (inactive)

Please give measured growth of the following entry: O=C1CCC(N2C(=O)c3cccc(NCCCC4CCN(CCNC(=O)c5cc6c(o5)C(=O)c5ccccc5C6=O)CC4)c3C2=O)C(=O)N1 (stereo not given)
-99.2% (active)

Please give measured growth of the following entry: OC(COc1cccc2ccccc12)CN1CCN(c2ccccc2)CC1 (stereo not given)
97.7% (inactive)

---

Test system: NCI-H322M lung
Test: NCI-60 one-dose screen, 48 h (100 = growth as untreated, 0 = no growth, -100 = all killed)
Conditions: 10 µM unless noted
Compounds without any hit were thinned out: in the full panel of roughly 83,000, 20% have a hit.
Kindly return TRUE if reported growth is no lower than 90%; return FALSE if it is lower.

Record excerpt, results attached:
cpd_smiles	assigned_class
COC(=O)CCCNC(=O)C(=O)c1c(O)c(O)c(C(C)C)c2cc(C)c(-c3c(C)cc4c(C(C)C)c(O)c(O)c(C(=O)C(=O)NCCCC(=O)OC)c4c3O)c(O)c12	FALSE
Nc1nc(N)c(-c2ccc(Cl)cc2)c(/C=C/c2ccc([N+](=O)[O-])cc2)n1	FALSE
CS(=O)(=O)c1ccc(N/N=C/c2c(-c3ccc(S(C)(=O)=O)cc3)[nH]c3ccc(F)cc23)cc1	FALSE
CCCN1CCN(c2ccc3nc(-c4ccc5nc(-c6cc(OC)c(OC)c(OC)c6)[nH]c5c4)[nH]c3c2)CC1	TRUE
Cc1c(C(=O)O)nnn1-c1nccs1	TRUE

Say whether COc1cc2c(O)n(CCCn3ccnc3)c3c4cnc5cccc(c(=O)c3c2cc1OC)c54 shows growth of 90% or more.
FALSE

Say whether COc1cc(/C=C2\C=C(c3ccccc3)N(CCc3ccccc3)C2=O)cc(OC)c1OC shows growth of 90% or more.
FALSE

Say whether Cc1c2c(cn1Cc1ccccc1)CCc1cn[nH]c1-2 shows growth of 90% or more.
TRUE

Say whether N#C/C(=C\c1ccc(Br)cc1)n1nnc2cc(Cl)c(Cl)cc21 shows growth of 90% or more.
FALSE

Say whether CNC=O shows growth of 90% or more.
TRUE

Say whether C[C@@H]1CC[C@@H]2[C@@H]1[C@H](OC(=O)c1ccc3ccccc3c1)[C@]1(C3CCCCC3)C[C@@H](OC(=O)CO)[C@@]2(C)O1 shows growth of 90% or more.
FALSE

Say whether CCCc1cc(=O)oc2c3c(c4c(c12)OC(C)(C)C=C4)O[C@@H](C)[C@H](C)C3=O shows growth of 90% or more.
FALSE

Say whether COc1cc2oc3cc(C)oc(=O)c3c2cc1OC shows growth of 90% or more.
TRUE

Say whether C[C@@H]1C(=O)N(C[C@@H](Cc2ccccc2)NC(=O)OCc2ccccc2)[C@]1(Cc1ccccc1)C(=O)OCc1ccccc1 shows growth of 90% or more.
FALSE

Say whether COc1ccc(/C(C)=N/NS(=O)(=O)c2ccc(C)cc2)cc1OC shows growth of 90% or more.
TRUE

Say whether Cc1c(C(=O)O[C@H]2[C@@H]3[C@H](C)CC[C@H]3[C@]3(C)O[C@@]2(C2CCCCC2)C[C@H]3OC(=O)CO)ccc2ccccc12 shows growth of 90% or more.
FALSE

Say whether O=C(Nc1ccc(N2CCCCC2)c(Cl)c1)c1ccc(Br)o1 shows growth of 90% or more.
TRUE
